- Measured Target: hAM2 receptor (CALCRL:RAMP3) (Homo sapiens, UniProt O60896+Q16602)
- Construct: expressed in transfected cells; host or cells: GeneBLAzer CALCRL:RAMP3-CRE-bla Freestyle 293F
- Sequence (Q16602 23-461): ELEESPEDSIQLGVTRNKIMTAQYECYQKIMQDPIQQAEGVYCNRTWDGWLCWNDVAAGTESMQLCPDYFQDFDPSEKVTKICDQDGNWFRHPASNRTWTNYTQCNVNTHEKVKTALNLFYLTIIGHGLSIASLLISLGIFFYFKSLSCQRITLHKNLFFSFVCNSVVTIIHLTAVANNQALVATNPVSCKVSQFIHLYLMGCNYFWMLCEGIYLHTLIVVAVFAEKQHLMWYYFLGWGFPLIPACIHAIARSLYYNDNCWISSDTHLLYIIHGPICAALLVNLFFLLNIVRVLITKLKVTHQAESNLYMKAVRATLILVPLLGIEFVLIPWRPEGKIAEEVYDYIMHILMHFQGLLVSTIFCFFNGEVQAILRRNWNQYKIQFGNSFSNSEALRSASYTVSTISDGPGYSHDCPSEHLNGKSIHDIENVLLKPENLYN
- Sequence (O60896 24-148): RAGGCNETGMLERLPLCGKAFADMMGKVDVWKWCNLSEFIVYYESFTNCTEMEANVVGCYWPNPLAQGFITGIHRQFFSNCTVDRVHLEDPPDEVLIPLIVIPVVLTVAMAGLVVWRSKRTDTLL
- Measurement Notes: AM2 receptor antagonist activity measured by cAMP assay (HTRF)
- Format: cell-based
- Condition Details: GeneBLAzer CALCRL:RAMP3-CRE-bla Freestyle 293F cells; agonist human adrenomedullin; read-out: hAM2-R IC50 Ave
Numbered stars: 1 amine (or outer) side, 2 acyl side, 3 side chain; on linkers, the order of the positions; unused ones are H or OH. Bridge positions count the residues as written; N and C are the ends. Square brackets hold non-standard residues; d marks the D form. Peptide text beside a SMILES is read from it. * marks the point of attachment. Phe(3-CH2NH2) = O=C([C@H](Cc1cccc(CN[*:3])c1)N[*:1])[*:2]; Phe(2-CONH2) = NC(=O)c1ccccc1C[C@H](N)C(=O)O; X5 = O=C([C@H](Cc1ccc(CO)cc1)N[*:1])[*:2]; Orn(iPr) = CC(C)NCCC[C@H](N)C(=O)O; Oxazole2carbonyl = O=C(c1ncco1)*; 3Pal = N[C@@H](Cc1cccnc1)C(=O)O; ΔPro = O=C(O)[C@@H]1C=CCN1; X1 = O=C(c1ncccc1F)*

Molecule: CC(C)[C@@H]1NC(=O)[C@H](CC(=O)O)NC(=O)[C@H](CCCNC(=N)N)NC(=O)[C@@H](NC(=O)[C@H](Cc2ccccc2C(N)=O)NC(=O)[C@H](NC(=O)c2ncccc2F)C(C)C)CSSC[C@@H](C(=O)N[C@@H](Cc2cccnc2)C(N)=O)NC(=O)[C@H](Cc2cccc(CN)c2)NC(=O)[C@@H]2C=CCN2C(=O)CNC1=O [Compound 32] (X1-[dV][Phe(2-CONH2)]CRDVG[ΔPro][Phe(3-CH2NH2)]C[3Pal]-NH2; disulfide 3-10)
IC50 / µM: 0.061

Molecule: CC(C)NCCC[C@@H]1NC(=O)[C@@H](NC(=O)[C@H](Cc2ccccc2C(N)=O)NC(=O)[C@H](NC(=O)c2ncco2)C(C)C)CSSC[C@@H](C(=O)N[C@@H](Cc2cccnc2)C(N)=O)NC(=O)[C@H](Cc2ccc(CO)cc2)NC(=O)[C@@H]2CCCN2C(=O)CNC(=O)[C@H](C(C)C)NC(=O)[C@H](CC(=O)O)NC1=O [Compound 64] (Oxazole2carbonyl-[dV][Phe(2-CONH2)]C[Orn(iPr)]DVGP[X5]C[3Pal]-NH2; disulfide 3-10)
IC50 / µM: 1.25

Hello, the source for this data is patent US9969775B2, in case you need it.
